All figures here come from patent US7572923B2.

System: human lung cancer cell line (A549)
Assay: Inhibition of cancer cell line proliferation, A549
Format: cell-based
Settings: 96 h, 3˜4 days incubation, absorbance at 515 nm
pIC50: −log10 of the molar value.
Outcome Measure: pIC50

Past entries and their recorded results:
# Compound, Tested Target, pIC50
rows = [
    ("O=C1Nc2ccc(I)cc2C1=C1Nc2ccccc2C1=O [AGM026]", "human lung cancer cell line (A549)", "< 4.00"),
    ("O=C1Nc2ccc(Cl)cc2C1=C1Nc2ccccc2C1=O [AGM025]", "human lung cancer cell line (A549)", "< 4.00"),
]

Okay, next one:
Given Cc1ccc2c(c1)C(=C1Nc3ccccc3C1=O)C(=O)N2 [AGM024] , state its recorded pIC50.
< 4.00

----------
Test system: human cell line (HT 1080)
Assay: Inhibition of cancer cell line proliferation, HT 1080
Type: cell-based
Conditions: HT-1080, 96 h, read-out: IC50 HT108
pIC50: −log10 of the molar value.
Outcome Measure: pIC50

# Molecule Smiles, Tested Target, pIC50
measured = [
    ("O=C1Nc2ccc(F)cc2C1=C1Nc2ccccc2C1=NO", "human cell line (HT 1080)", 5.47),
]

Quick batch: pIC50 for everything below.
1. O=C1Nc2ccc(I)cc2C1=C1Nc2ccccc2C1=O
2. O=C1Nc2ccc(Cl)cc2C1=C1Nc2ccccc2C1=O

1. < 4.00
2. < 4.00
